Origin of measurements: paper PMC12476894

ASSAY OVERVIEW: physchem
DETAILS: pH 2, simulated gastric fluid, kinetic from dmso stock
MEASURED ENDPOINT: solubility (µM)
Respond numerically; units are µM and should not be typed.

Notebook: Cc1nn(CCNC(=O)Cn2c(C)c(C#N)c3ccccc32)c(C)c1Cl [compound 3] , solubility read as 25

// sample COc1ccc(Cl)cc1NC(=O)Cn1cccc1-c1nnc(C2CC2)o1 [compound 1] , its solubility was 25

What the record says about Cc1ccnc(NC(=O)Cn2cccc2-c2nc(-c3ccccc3)cs2)c1 [compound 2] : solubility is 99

* * *

ASSAY OVERVIEW: in vitro
Assay type: in vitro ADME
DETAILS: human liver microsomes, 1 µM compound, 0.4 mg/mL protein
MEASURED ENDPOINT: microsomal CLint

Entry Cc1ccnc(NC(=O)Cn2cccc2-c2nc(-c3ccccc3)cs2)c1 [compound 2] , microsomal CLint reported as > 866 µL/min/mg

The reported value for Cc1nn(CCNC(=O)Cn2c(C)c(C#N)c3ccccc32)c(C)c1Cl [compound 3] in terms of microsomal CLint is > 866 µL/min/mg

Please fill in: microsomal CLint reported for COc1ccc(Cl)cc1NC(=O)Cn1cccc1-c1nnc(C2CC2)o1 [compound 1] = 279 µL/min/mg

* * *

Test system: P. falciparum Dd2 (PfDd2) parasites
ASSAY OVERVIEW: 72 h SYBR Green growth inhibition, ABS P. falciparum Dd2 (Phillips Lab)
Format: cell-based, Plasmodium falciparum
DETAILS: 72 h SYBR Green assay; mean ± SEM (n); read-out: PfDd2 EC50
Can you tell me EC50 for the items I'm about to list?

Summary: Cc1cccnc1NC(=O)Cn1cccc1-c1nc(-c2ccc(Cl)cc2)cs1 , P. falciparum Dd2 (PfDd2) parasites, EC50 = > 30 µM

Entry O=C(Cn1cccc1-c1nc(-c2ccccc2)cs1)Nc1cccc(Cl)c1 under P. falciparum Dd2 (PfDd2) parasites had EC50 of 0.98 µM

Result for O=C(Cn1cccc1-c1nc(-c2ccc(Cl)cc2)cs1)N1CCc2ccccc21 , tested on P. falciparum Dd2 (PfDd2) parasites, EC50: > 30 µM

GET /values?item= O=C(Cn1ccc2ccccc21)NCCn1cccn1 &system= P. falciparum Dd2 (PfDd2) parasites returns EC50: > 30 µM

* * *

ASSAY OVERVIEW: Human HepG2 cytotoxicity assay (CellTiter Glo)
Format: cell-based
DETAILS: HepG2 cells
Please go through the items and note down their CC50 at 96 h.

The value of CC50 at 96 h measured for the molecule Cc1ccnc(NC(=O)Cn2cccc2-c2nc(-c3ccccc3)cs2)c1 [compound 2] turned out to be > 50 µM

Recorded result, COc1ccc(Cl)cc1NC(=O)Cn1cccc1-c1nnc(C2CC2)o1 [compound 1] , CC50 at 96 h: > 50 µM

CC50 at 96 h for Cc1nn(CCNC(=O)Cn2c(C)c(C#N)c3ccccc32)c(C)c1Cl [compound 3] is > 50 µM

* * *

For each entry below, report its EC50 value.
System: P. falciparum Dd2 (PfDd2) parasites
ASSAY OVERVIEW: 72 h SYBR Green growth inhibition, ABS P. falciparum Dd2 (Phillips Lab)
Type: cell-based, Plasmodium falciparum
DETAILS: 72 h SYBR Green assay; mean ± SEM (n); read-out: PfDd2 EC50
Give the quantity in µM, number only.

So, Cc1cccc(NC(=O)Cn2cccc2-c2nc(-c3ccccc3)cs2)n1 ? Its EC50 was 12

Kindly note the recorded EC50 for Cc1ccnc(NC(=O)Cn2cccc2-c2nc(-c3ccc(Cl)cc3)cs2)c1 , which is 14

For record Cc1ccc(NC(=O)Cn2cccc2-c2nc(-c3ccccc3)cs2)nc1 the listed EC50 is 9.6

* * *

Tested on: Dd2 PfATP4^F917L mutant clones
ASSAY OVERVIEW: 72 h SYBR Green growth inhibition, 2- or 3-selected Dd2 clones with PfATP4 F917L (Phillips Lab)
Assay type: cell-based, Plasmodium falciparum
DETAILS: {}
Classify as follows. Reported Fold EC50 change compared to WT Dd2, 3-selected flask #3 clone D8 greater than or equal to 20 fold: 1.0. Reported Fold EC50 change compared to WT Dd2, 3-selected flask #3 clone D8 below: 0.0.

Prompt line: Is the recorded value of Fold EC50 change compared to WT Dd2, 3-selected flask #3 clone D8 equal to or greater than 20 fold for this compound? Cc1nn(CCNC(=O)Cn2c(C)c(C#N)c3ccccc32)c(C)c1Cl
Response line: 1.0

Prompt line: Evaluate COc1ccc(Cl)cc1NC(=O)Cn1cccc1-c1nnc(C2CC2)o1 : Fold EC50 change compared to WT Dd2, 3-selected flask #3 clone D8 at minimum 20 fold?
Response line: 0.0

Prompt line: Answer whether Fold EC50 change compared to WT Dd2, 3-selected flask #3 clone D8 of Cc1cc(Nc2ccc(S(F)(F)(F)(F)F)cc2)n2nc(C(C)(F)F)nc2n1 [DSM265, reference compound] is greater than or equal to 20 fold.
Response line: 0.0

Prompt line: Given the entry C[C@H]1Cc2c([nH]c3cc(Cl)c(F)cc23)[C@@]2(N1)C(=O)Nc1ccc(Cl)cc12 [KAE609, cipargamin, reference compound] , answer whether its Fold EC50 change compared to WT Dd2, 3-selected flask #3 clone D8 meets or surpasses 20 fold.
Response line: 0.0

Prompt line: Dear colleague, could you confirm whether Cc1ccnc(NC(=O)Cn2cccc2-c2nc(-c3ccccc3)cs2)c1 has Fold EC50 change compared to WT Dd2, 3-selected flask #3 clone D8 at or above 20 fold?
Response line: 0.0

* * *

Tested on: P. falciparum 3D7 parasites (Pf3D7)
ASSAY OVERVIEW: 72 h SYBR Green growth inhibition, ABS P. falciparum 3D7 (Phillips Lab)
Format: cell-based, Plasmodium falciparum
DETAILS: P. falciparum 3D7 and Dd2 parasites
MEASURED ENDPOINT: activity of analogs relative to parent 2 or 3 (in words)

>>> df
                                   compound            result
0  O=C(Cn1ccc2ccccc21)NCCn1cccn1 [compound 13]  loss of activity
1  Cc1cc(N)n(CC(=O)NCCn2c(C)cc3ccccc32)n1 [compound 14]  loss of activity
2  CC(=O)c1cn(C(C)C(=O)NCCn2nc(C)c(Cl)c2C)c2ccccc12 (stereo not drawn) [compound 12]  loss of activity
